This collection of values is drawn from PubChem BioAssay (NCI).

Tested on: CCRF-CEM leukemia
Assay: NCI-60 one-dose screen, 48 h (100 = growth as untreated, 0 = no growth, -100 = all killed)
Conditions: 10 µM
About 83,000 compounds went through this panel and 20% of them were active in at least one assay; those are over-represented in the sample as a whole.
Output Condition met for records whose growth is lower than 90%, Condition not met for records at or above 90%.

>  <chemical-string>
Cc1c(O)c(N=Nc2ccc(C(=O)O)c(O)c2)c2ccccc2c1O

>  <assigned-category>
Condition not met

$$$$

Criterion: growth strictly below 90%. Is it met by COc1cc(-c2cc3cnccc3c3nc(N)c4ccncc4c23)cc(OC)c1OC ?
Condition met

Criterion: growth strictly below 90%. Is it met by CCS(=O)(=O)OCCO[C@H]1Cc2cc3ccc(=O)oc3cc2OC1(C)C ?
Condition not met

Criterion: growth strictly below 90%. Is it met by Cc1cc2cn3c4ccc(O)cc4[nH]c(=O)c3c2cc1C ?
Condition met

Criterion: growth strictly below 90%. Is it met by COc1cc(N2C(=O)C=CC2=O)ccc1N1C(=O)C=CC1=O ?
Condition met
